Target: T1, human Ang-2 (human, UniProt O15123)
T1 chain: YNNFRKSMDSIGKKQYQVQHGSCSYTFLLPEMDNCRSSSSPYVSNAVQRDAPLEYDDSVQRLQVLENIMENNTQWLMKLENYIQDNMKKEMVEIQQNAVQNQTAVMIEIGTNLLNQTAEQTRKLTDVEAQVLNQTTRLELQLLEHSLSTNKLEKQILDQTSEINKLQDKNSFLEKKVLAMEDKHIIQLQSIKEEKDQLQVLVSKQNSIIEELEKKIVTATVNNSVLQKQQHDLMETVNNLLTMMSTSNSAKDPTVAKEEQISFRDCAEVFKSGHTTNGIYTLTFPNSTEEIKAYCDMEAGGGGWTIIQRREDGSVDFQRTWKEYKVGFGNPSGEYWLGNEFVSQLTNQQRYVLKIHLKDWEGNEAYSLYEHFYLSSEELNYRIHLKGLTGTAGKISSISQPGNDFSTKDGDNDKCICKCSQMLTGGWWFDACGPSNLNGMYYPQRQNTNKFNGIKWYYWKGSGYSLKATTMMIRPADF
Assay: competition ELISA vs Tie-2
Primed or numbered codes have the meaning given here. Where no end group is shown, it is not given here. [ ]: non-standard residue; d: D form. Fc(3) = Fc: non-antigen-binding fragment of an antibody from proteolytic digestion of a whole antibody (vehicle)
result.type: IC50 (nM)

* MGAQFDYCEGVEDPFTFGCDNHLEGGGGGX (not fully specified (C-terminus, bridges); printed as MGAQ-FDYCEGVEDPFTFGCDNHLE-GGGGG-Fc; cysteine pairing not given here) [TN12-9 (N)] | 21
* MGAQKFNPLDELEETLYEQFTFQQLEGGGGG[Fc(3)] [L1 (N)] | 6
